TARGET: Focal adhesion kinase 1 (Homo sapiens)
ASSAY OVERVIEW: small-molecule microarray binders of FAK, primary screen, biochemical, 635/667 nm fluorescence, BSA, DTT (AID 1130);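 further: composite of spot emission at 667 nm and signal to noise over triplicate slides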
CONDITION PARAMETERS: PTK2 binding, 635 nm fluorescence, higher = more signal
Parameter threshold = -0.1. Response is label 1 when composite z-score meets or exceeds it, else label 0.

# MOLECULE, DISCRETE LABEL
rows = [
    ("CC(C)C[C@@H]1NC(=O)[C@@H]2C[C@H](C(=O)NCCCCCNC(=O)CS)[C@H](c3cccc(OCCO)c3)N2C1=O", "label 1"),
    ("CCCCC(=C=CC[C@@H](O)c1ccc(OCCO)cc1)C[C@@H](O)c1cc(Cl)cc(Cl)c1O", "label 1"),
    ("CCCC[C@@H](O)C1=C(C)C[C@H]2C(=O)N(C)C(=O)[C@H]2[C@H]1CO", "label 1"),
    ("COC(=O)[C@@]1(CCC(=O)OC(C)(C)C)COC(c2ccc(OCCCO)cc2)=N1", "label 0"),
    ("C=CCC(OC(C)=O)[C@@H]1[C@@H](N(Cc2cccc3ccccc23)C(=O)Cc2ccc(OC)cc2)c2cc(OCCCO)ccc2N1C(=O)Cc1ccc(OC)cc1 (some centres undefined)", "label 0"),
    ("C=CCN1C(=O)[C@@]2(O[C@@H](CCn3cc(CCO)nn3)[C@H]([Si](C)(C)c3ccc(OC)cc3)[C@H]2C)c2cc(NC(=O)c3ccc(OC)cc3)ccc21", "label 1"),
    ("O=c1n(-c2ccccc2)c(=O)n2n1CC(COc1ccccc1)=C1[C@@H](CCc3ccccc3)OB(O)C[C@@H]12", "label 1"),
    ("CC(=O)OC(C/C=C\\B1OC(C)(C)C(C)(C)O1)c1ccccc1 (centres undefined)", "label 0"),
    ("CCOC(=O)C[C@H]1[C@H](OC(=O)c2cc3ccccc3oc2=O)[C@@H](NC(=O)c2ccccc2)c2cc(OCCCO)ccc2N1C(=O)Cc1ccc(OC)cc1", "label 1"),
    ("CC(C)[C@@H](C(=O)O)n1cc(-c2ccccn2)nn1", "label 1"),
    ("[N-]=[N+]=NCc1ccccc1C[C@@]1(C(=O)O)N=C(c2ccc(OCCCO)cc2)O[C@@H]1c1ccccc1", "label 1"),
    ("C[N+](C)(C)CCCCNC(=O)[C@@H]1C[C@@H]2C(=O)NCC(=O)N2[C@@H]1c1cccc(OCCO)c1", "label 0"),
    ("CCCNC(=O)[C@@H]1c2ccccc2C(=O)N(Cc2cc(C(F)(F)F)cc(C(F)(F)F)c2)[C@H]1c1ccc(CO)cc1", "label 1"),
    ("O=C(NCc1ccccc1)[C@@H]1c2ccccc2C(=O)N(Cc2ccccc2Cl)[C@H]1c1ccc(CO)cc1", "label 1"),
    ("O=C1c2ccccc2C(=O)c2cc([C@H]3Oc4ccccc4S(=O)(=O)N4CCC[C@@H]34)ccc21", "label 0"),
    ("C=C(C(=O)CC[C@@H](OC(C)=O)c1ccccc1OCCO)C(C)C", "label 0"),
    ("C=CCC(OC(C)=O)[C@@H]1[C@@H](N(Cc2cc3ccccc3o2)C(=O)c2ccc(-c3ccccc3)cc2)c2cc(OCCCO)ccc2N1C(=O)c1ccc(-c2ccccc2)cc1 (some centres undefined)", "label 1"),
    ("Cc1ccc(N2C(=O)c3ccccc3[C@](C)(C(=O)NCC(F)(F)F)[C@@H]2c2ccc(CO)cc2)nc1", "label 0"),
    ("COc1ccc(C(=O)Nc2cccc(CN3C(=O)[C@@]4(O[C@@H](CCO)[C@H]([Si](C)(C)c5ccc(OC)cc5)[C@H]4C)c4ccccc43)c2)cc1", "label 0"),
    ("CC(CO)N1C(=O)[C@@H]2C3C(=O)OCCC/C=C\\[C@H]3OC23C=CCN(Cc2ccccc2)C(=O)[C@@H]13 (some centres undefined)", "label 0"),
    ("COCCCN1C(=O)[C@@]2(Cc3ccccc31)c1ccccc1C(=O)N(Cc1ccccc1Cl)[C@H]2c1ccc(CO)cc1", "label 0"),
    ("CC(C)(C)OC(=O)CC[C@@]1(C(=O)NCc2ccccc2)N=C(c2ccc(OCCCO)cc2)O[C@@H]1c1ccccc1CN=[N+]=[N-]", "label 0"),
    ("COc1ccc([Si](C)(C)[C@@H]2[C@@H](CC(=O)N3CCC[C@H]3CO)O[C@]3(C(=O)N(Cc4ccc(I)cc4)c4ccccc43)[C@H]2C)cc1", "label 1"),
    ("C=CCNC(=O)[C@@H]1[C@H]2C(=O)O[C@H](c3ccccc3)[C@H](c3ccccc3)N2[C@H](c2ccc(O)cc2)[C@@]12C(=O)N(C(=O)OCCOC)c1ccc(C#Cc3ccc(OC)cc3)cc12", "label 1"),
    ("C=CC[C@@]1(C(=O)NCc2ccccc2)N=C(c2ccc(OCCCO)cc2)O[C@@H]1c1ccccc1", "label 1"),
    ("NCCCCCNC(=O)[C@H]1C[C@H]2C(=O)NCC(=O)N2[C@H]1c1ccc(O)cc1", "label 1"),
    ("COCCOC(=O)N1C(=O)[C@@]2(c3cc(C#CC4(O)CCCCCC4)ccc31)[C@H](C(=O)NC[C@H](O)c1ccccc1)[C@H]1C(=O)O[C@H](c3ccccc3)[C@H](c3ccccc3)N1[C@@H]2c1ccccc1OCCO", "label 1"),
    ("CC(C)(C)OC(=O)CC[C@]1(C(=O)NCc2ccccc2)N=C(c2ccc(OCCCO)cc2)O[C@H]1c1ccccc1N=[N+]=[N-]", "label 1"),
    ("C=CCNC(=O)[C@@H]1[C@H]2C(=O)O[C@H](c3ccccc3)[C@H](c3ccccc3)N2[C@H](c2ccc(O)cc2)[C@@]12C(=O)Nc1ccc(C#Cc3ccc(OC)cc3)cc12", "label 1"),
]
